Listed below: CLint scaled values for each entry.
Experiment: Intrinsic clearance in mouse liver microsomes
Format: in vitro ADME
Observable: CLint scaled

INSERT INTO measurements (smiles_string, endpoint_value) VALUES
  ('CN[C@H]1CCN(c2ccc(Nc3cc(NC4CC4)n4ncc(C#N)c4n3)cc2NC(C)=O)C1', '27 mL/min/kg'),
  ('CCC(=O)Nc1cc(Nc2cc(NC3CC3)n3ncc(C#N)c3n2)ccc1N1CCC[C@H](NC)C1', '< 24 mL/min/kg'),
  ('CN[C@H]1CCCN(c2ccc(Nc3cc(NC4CC4)n4ncc(C#N)c4n3)cc2NC(C)=O)C1', '< 24 mL/min/kg');

----------
Assay: In vivo mouse pharmacokinetics
Settings: male, CD-1, mouse, plasma, ip, 10 mg/kg
Observable: AUC(0-t)

INSERT INTO results (smiles_string, endpoint_value) VALUES
  ('CN[C@H]1CCN(c2ccc(Nc3cc(NC4CC4)n4ncc(C#N)c4n3)cc2NC(C)=O)C1', '1300 ng·h/mL'),
  ('CCC(=O)Nc1cc(Nc2cc(NC3CC3)n3ncc(C#N)c3n2)ccc1N1CCC[C@H](NC)C1', '7010 ng·h/mL'),
  ('CN[C@H]1CCCN(c2ccc(Nc3cc(NC4CC4)n4ncc(C#N)c4n3)cc2NC(C)=O)C1', '770 ng·h/mL');

----------
Listed below: clearance values for each entry.
Test: In vivo mouse pharmacokinetics
Details: male, CD-1, mouse, plasma, iv, 1 mg/kg
Observable: clearance (mL/min/kg)

INSERT INTO results (smiles_string, endpoint_value) VALUES
  ('CCC(=O)Nc1cc(Nc2cc(NC3CC3)n3ncc(C#N)c3n2)ccc1N1CCC[C@H](NC)C1', 36),
  ('CN[C@H]1CCCN(c2ccc(Nc3cc(NC4CC4)n4ncc(C#N)c4n3)cc2NC(C)=O)C1', 84),
  ('CN[C@H]1CCN(c2ccc(Nc3cc(NC4CC4)n4ncc(C#N)c4n3)cc2NC(C)=O)C1', 69);

----------
Listed below: half-life values for each entry.
Test: In vivo mouse pharmacokinetics
Conditions: male, CD-1, mouse, plasma, iv, 1 mg/kg
Observable: half-life (h)

INSERT INTO measurements (compound, observable, output_unit, endpoint_value) VALUES
  ('CN[C@H]1CCN(c2ccc(Nc3cc(NC4CC4)n4ncc(C#N)c4n3)cc2NC(C)=O)C1 [Compound 2e]', 'half-life', 'h', 1.2),
  ('CN[C@H]1CCCN(c2ccc(Nc3cc(NC4CC4)n4ncc(C#N)c4n3)cc2NC(C)=O)C1 [Compound 2c]', 'half-life', 'h', 1.8);

----------
Listed below: Cmax values for each entry.
Test: In vivo mouse pharmacokinetics
Conditions: male, CD-1, mouse, plasma, ip, 10 mg/kg
Observable: Cmax (ng/mL)

INSERT INTO measurements (molecule, observable, endpoint_value) VALUES
  ('CN[C@H]1CCN(c2ccc(Nc3cc(NC4CC4)n4ncc(C#N)c4n3)cc2NC(C)=O)C1 [Compound 2e]', 'Cmax', 1500),
  ('CCC(=O)Nc1cc(Nc2cc(NC3CC3)n3ncc(C#N)c3n2)ccc1N1CCC[C@H](NC)C1 [Compound 1i]', 'Cmax', 4700),
  ('CN[C@H]1CCCN(c2ccc(Nc3cc(NC4CC4)n4ncc(C#N)c4n3)cc2NC(C)=O)C1 [Compound 2c]', 'Cmax', 670);

Where do these numbers come from? They come from paper PMC10600890.
